biological target: HCV cap-dependent translation; experiment: In vitro translation assay, FF-HCV-Ren construct, cap-dependent (FF luciferase)
pIC50: −log10 of the molar value.
assay metric: pIC50

Task: I would be grateful if you could share the reported pIC50 for Cc1ccc(/C=C/C(=O)c2c(-c3ccccc3)c3cc(Cl)ccc3[nH]c2=O)nc1 .
Result: 5.00 to 5.70

State the recorded pIC50 for every item in the following list.
1. COc1cncc(-c2c(C(=O)/C=C/c3cncc(F)c3)c(=O)[nH]c3ccc(Cl)cc23)c1
2. Cc1cncc(-c2c(C(=O)/C=C/c3ccccn3)c(=O)[nH]c3ccc(Cl)cc23)c1
3. CCn1c(/C=C/C(=O)c2c(-c3ccccc3)c3cc(Cl)ccc3[nH]c2=O)nc2cc(Cl)c(Cl)cc21
4. CCn1c(/C=C/C(=O)c2c(-c3ccccc3)c3cc(Cl)ccc3[nH]c2=O)nc2ccccc21
5. O=C(/C=C/c1cncc(F)c1)c1c(-c2ccc(C(F)(F)F)cc2)c2cc(Cl)ccc2[nH]c1=O
6. O=C(/C=C/c1ccc(Br)cn1)c1c(-c2ccccc2)c2cc(Cl)ccc2[nH]c1=O
7. O=C(/C=C/c1cncc(F)c1)c1c(-c2ccccc2)c2cc(Cl)ccc2[nH]c1=O

Result:
["4.70 to 5.00", "< 4.70", "4.70 to 5.00", "5.00 to 5.70", "5.00 to 5.70", "5.00 to 5.70", "5.00 to 5.70"]

State the recorded pIC50 for every item in the following list.
1. O=C(/C(Br)=C\c1cncc(F)c1)c1c(-c2ccccc2)c2cc(Cl)ccc2[nH]c1=O
2. O=C(/C=C/c1cncc(F)c1)c1c(-c2ccc(Cl)cc2)c2cc(Cl)ccc2[nH]c1=O
3. O=C(/C=C/c1ccsc1)c1c(-c2ccccc2)c2cc(Cl)ccc2[nH]c1=O

Result:
1: 5.00 to 5.70; 2: 5.00 to 5.70; 3: 5.00 to 5.70

State the recorded pIC50 for every item in the following list.
1. O=C(/C=C/c1cncc(F)c1)c1c(-c2cncc(F)c2)c2cc(Cl)ccc2[nH]c1=O
2. COc1cncc(-c2c(C(=O)/C=C/c3ccccn3)c(=O)[nH]c3ccc(Cl)cc23)c1
3. O=C(/C=C/c1cc(Br)cs1)c1c(-c2ccccc2)c2cc(Cl)ccc2[nH]c1=O

Result:
["4.70 to 5.00", "4.70 to 5.00", "5.00 to 5.70"]

Cited source for all entries: patent US10577349B2
